Assay: Stability of analytes in rat plasma (auto-sampler, freeze-thaw, room temperature, long-term)
Details: 500 ng/mL, room temperature 24 h
Readout Name: Room temperature for 24 h Accuracy (%)

{"Compound": "COC(=O)C1=CO[C@@H](O[C@@H]2O[C@H](CO)[C@@H](O)[C@H](O)[C@H]2O)[C@H]2[C@@H]1C(=O)C[C@@H]2C", "Room temperature for 24 h Accuracy (%)": "104.0%"}
{"Compound": "O=c1cc(-c2ccccc2)oc2cc(O)c(O)c(O)c12", "Room temperature for 24 h Accuracy (%)": "91.0%"}
{"Compound": "O=C(O)c1ccc(O)c(O)c1", "Room temperature for 24 h Accuracy (%)": "85.3%"}
{"Compound": "O=C(O)C=Cc1ccc(O)cc1", "Room temperature for 24 h Accuracy (%)": "97.8%"}
{"Compound": "C[C@@]12C[C@@]3(O)O[C@@H](O1)[C@]1(COC(=O)c4ccccc4)[C@H]3C[C@@]12O[C@@H]1O[C@H](CO)[C@@H](O)[C@H](O)[C@H]1O", "Room temperature for 24 h Accuracy (%)": "92.2%"}

For record O=C(O)[C@H]1O[C@@H](Oc2cc(O)c3c(=O)cc(-c4ccc(O)cc4)oc3c2)[C@H](O)[C@@H](O)[C@@H]1O [apigenin-7-O-glucuronide] the listed Room temperature for 24 h Accuracy (%) is 104.0%

For record COc1ccc(-c2coc3cc(O[C@@H]4O[C@H](CO)[C@@H](O)[C@H](O)[C@H]4O)ccc3c2=O)cc1 the listed Room temperature for 24 h Accuracy (%) is 93.2%
